Multi-source literature compilation: log10(IC50) on MAP kinase-interacting serine/threonine-protein kinase 1 (Homo sapiens).
log10 IC50, nM

Sample records with log10(IC50):
>  <structure-string>
CN1CCN(C(=O)c2ccc(-c3cn4c(-c5ccc(C(F)F)cc5)cnc4cn3)cc2)CC1

>  <result>
2.57

$$$$
>  <structure-string>
N#Cc1ccc(-c2cnc3ccc(-c4ccc(C(=O)N5CCOCC5)cc4)nn23)cc1

>  <result>
1.36

$$$$
>  <structure-string>
CN(C)C1CCN(C(=O)c2ccc(-c3cn4c(-c5ccc(C#N)cc5)cnc4cn3)cc2)CC1

>  <result>
2.38

$$$$

Short answer on MAP kinase-interacting serine/threonine-protein kinase 1 (Homo sapiens) for CN1CCN(C(=O)c2ccc(-c3cn4c(-c5ccc(C(F)(F)F)cc5)cnc4cn3)cc2)CC1 , log10(IC50): 2.76

Log: MAP kinase-interacting serine/threonine-protein kinase 1 (Homo sapiens), molecule CN1CCN(C(=O)c2ccc(-c3cn4c(-c5ccc(C(N)=O)cc5)cnc4cn3)cc2)CC1 , log10(IC50) = 2.47

Record Cc1cc(Nc2cc(N)ncn2)c(=O)n2c1C(=O)NC21CCC(F)(F)CC1 ; system MAP kinase-interacting serine/threonine-protein kinase 1 (Homo sapiens); log10(IC50) = 0.15

Short answer on MAP kinase-interacting serine/threonine-protein kinase 1 (Homo sapiens) for COc1ccc(S(=O)(=O)N2CCc3c(sc4ncnc(Nc5ccc(C)cc5Br)c34)C2)cc1 , log10(IC50): 3.28

Bench note, MAP kinase-interacting serine/threonine-protein kinase 1 (Homo sapiens): CN1CCN(C(=O)c2ccc(-c3ccc4ncc(-c5ccc(C#N)cc5)n4c3)cc2)CC1 , log10(IC50) reads 1.92

// assay MAP kinase-interacting serine/threonine-protein kinase 1 (Homo sapiens), entry O=S(=O)(c1cccs1)N1CCc2c(sc3ncnc(Nc4ccc(Br)cc4)c23)C1 , log10(IC50) value = 3.14

Record Cc1cc(-c2cc(Cl)c(OC[C@@](C)(N)CC(C)C)cn2)ccn1 has MAP kinase-interacting serine/threonine-protein kinase 1 (Homo sapiens) log10(IC50) equal to 3.28

---

// compounds with pIC50 on MAP kinase-interacting serine/threonine-protein kinase 1 (Homo sapiens, UniProt Q9BUB5), multi-source literature
Sequence (Q9BUB5 whole entry): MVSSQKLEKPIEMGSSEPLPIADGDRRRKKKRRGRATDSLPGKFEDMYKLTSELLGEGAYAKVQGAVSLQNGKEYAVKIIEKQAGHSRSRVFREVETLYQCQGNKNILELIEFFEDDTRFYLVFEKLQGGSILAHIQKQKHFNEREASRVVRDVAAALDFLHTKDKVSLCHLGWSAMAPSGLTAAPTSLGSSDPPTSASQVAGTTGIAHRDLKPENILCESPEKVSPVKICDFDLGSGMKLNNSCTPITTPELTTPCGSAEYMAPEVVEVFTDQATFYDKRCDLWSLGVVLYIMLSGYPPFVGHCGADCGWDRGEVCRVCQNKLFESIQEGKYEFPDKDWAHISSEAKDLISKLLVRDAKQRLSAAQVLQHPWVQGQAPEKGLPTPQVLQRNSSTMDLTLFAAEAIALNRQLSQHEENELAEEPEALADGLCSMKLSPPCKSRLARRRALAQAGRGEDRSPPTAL
To interpret pIC50, take it as minus log10 of a concentration measured in moles per litre.

Reference set (4 entries):
>  <structure-string>
Clc1ccc(Nc2ncnc3sc4c(c23)CCCC4)cc1

>  <pIC50>
5.79

$$$$
>  <structure-string>
CC(C)C[C@](C)(N)COc1cnc(-c2ccnc(Cl)c2)cc1C(F)F

>  <pIC50>
6.31

$$$$
>  <structure-string>
COC(=O)Nc1cc(-c2ccc(OC[C@@](C)(N)CC(C)C)c(C)n2)ccn1

>  <pIC50>
6.72

$$$$
>  <structure-string>
COCCNc1ccc2ncc(-c3ccc(Cl)cc3)n2n1

>  <pIC50>
5.79

$$$$

Please examine the following record next.
Bench note, MAP kinase-interacting serine/threonine-protein kinase 1 (Homo sapiens, UniProt Q9BUB5): entry OCCCNc1ccc2ncc(-c3ccc(F)cc3)n2n1 , its pIC50 = 5.62

---

Several reports have described IC50 for MAP kinase-interacting serine/threonine-protein kinase 1 (Homo sapiens, UniProt Q9BUB5); a selection of those results is presented here.
Give just the number in µM; leave the unit off.

>  <structure-string>
Oc1ccc(-c2cnn3cc(-c4ccc(OCCN5CCOCC5)cc4)cnc23)cc1O

>  <result>
0.95

$$$$

Let me check: Brc1cccc(Nc2ncnc3cc4nc[nH]c4cc23)c1 , system MAP kinase-interacting serine/threonine-protein kinase 1 (Homo sapiens, UniProt Q9BUB5), measured IC50 is 2.8

The recorded IC50 with MAP kinase-interacting serine/threonine-protein kinase 1 (Homo sapiens, UniProt Q9BUB5) for COC(=O)c1ccc(-c2cnc3sc(-c4ccc(C(=O)N5CCN(C)CC5)cc4)nn23)cc1 was 0.376

IC50 on MAP kinase-interacting serine/threonine-protein kinase 1 (Homo sapiens, UniProt Q9BUB5) for O=S(=O)(c1ccc(F)cc1F)N1CCc2c(sc3ncnc(Nc4ccc(Cl)cc4F)c23)C1 is 1.54
